Target: T1, FXIIa (Factor XIIa) (human, UniProt P00748 373-615)
T1 chain: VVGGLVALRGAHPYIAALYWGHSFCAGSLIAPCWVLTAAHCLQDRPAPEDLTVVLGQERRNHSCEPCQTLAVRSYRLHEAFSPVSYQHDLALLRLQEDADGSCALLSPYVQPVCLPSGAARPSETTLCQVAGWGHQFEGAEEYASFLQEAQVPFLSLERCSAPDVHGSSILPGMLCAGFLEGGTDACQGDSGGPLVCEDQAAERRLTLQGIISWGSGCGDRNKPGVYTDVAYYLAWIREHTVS
Positions of bridges follow the written chain, without caps; N, C: chain ends. No end group written: not given here.
Endpoint: Ki (µM)
State just the number; it will be interpreted in µM.

Query: Ki; subject: GCTRQYPC (linker 2-8 via 1,3‑dibromoacetone) [peptide 035 (lead KLK5 inhibitor)] 43
